Ref: ChEMBL document CHEMBL3120102

- Tested on: A498
- protocol: Cytotoxicity against human A498 cells assessed as growth inhibition after 48 hrs by SRB assay
- Format: functional
- protocol-conditions: A498, 48 h
Provide the recorded TGI for the entries that follow.
Give the quantity in µM, number only.

Ask: Entry under review: O=C1c2ccccc2C(=O)c2c1ccc1nc(SCCN3CCCC3)[nH]c21 . Reported TGI?
Reply: 21.3

Ask: Requested field: TGI. Item: CN(C)CCCSc1nc2ccc3c(c2[nH]1)C(=O)c1ccccc1C3=O
Reply: 24.8

###

- system-tested: Telomerase reverse transcriptase (Homo sapiens) (UniProt O14746)
- Sequence (O14746 whole entry): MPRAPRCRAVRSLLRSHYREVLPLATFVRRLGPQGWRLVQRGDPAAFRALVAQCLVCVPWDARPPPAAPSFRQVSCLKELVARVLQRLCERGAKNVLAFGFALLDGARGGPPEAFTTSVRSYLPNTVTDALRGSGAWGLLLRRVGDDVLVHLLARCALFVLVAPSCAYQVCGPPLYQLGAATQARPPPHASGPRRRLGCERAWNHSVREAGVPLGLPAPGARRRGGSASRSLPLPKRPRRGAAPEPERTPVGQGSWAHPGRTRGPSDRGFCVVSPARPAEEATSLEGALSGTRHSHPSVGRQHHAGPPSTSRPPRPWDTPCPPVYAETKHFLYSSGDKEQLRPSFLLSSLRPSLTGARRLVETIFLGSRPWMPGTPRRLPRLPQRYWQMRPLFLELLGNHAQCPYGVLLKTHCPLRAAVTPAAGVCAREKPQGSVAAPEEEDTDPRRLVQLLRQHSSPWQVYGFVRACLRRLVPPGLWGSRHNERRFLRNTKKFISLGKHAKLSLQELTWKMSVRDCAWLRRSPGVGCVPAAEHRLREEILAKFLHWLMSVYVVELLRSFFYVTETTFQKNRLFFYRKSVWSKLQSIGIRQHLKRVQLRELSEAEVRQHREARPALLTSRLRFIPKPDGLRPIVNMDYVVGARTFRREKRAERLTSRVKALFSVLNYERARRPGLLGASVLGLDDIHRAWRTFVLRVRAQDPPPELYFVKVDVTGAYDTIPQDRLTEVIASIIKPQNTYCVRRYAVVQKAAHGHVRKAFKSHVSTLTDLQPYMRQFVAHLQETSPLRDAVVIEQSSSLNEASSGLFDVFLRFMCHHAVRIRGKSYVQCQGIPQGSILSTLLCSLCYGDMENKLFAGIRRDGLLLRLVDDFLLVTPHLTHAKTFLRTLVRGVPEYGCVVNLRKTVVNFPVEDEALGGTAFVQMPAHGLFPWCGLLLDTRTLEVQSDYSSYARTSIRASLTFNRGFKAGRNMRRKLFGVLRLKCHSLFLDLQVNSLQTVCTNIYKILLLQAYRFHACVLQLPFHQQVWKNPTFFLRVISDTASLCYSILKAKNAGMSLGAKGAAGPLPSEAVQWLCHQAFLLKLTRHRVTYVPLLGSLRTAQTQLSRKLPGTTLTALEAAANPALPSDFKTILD
- protocol: Inhibition of human tert transcriptional activity assessed as SEAP activity at 10 uM after 24 hrs by SEAP reporter assay
- Parameters: scale not given: the % may be the effect or the level left
Activity strictly under 90% means true; at 90% or over means false.

Ask: Is it true that Activity reported for O=C1c2c(O)ccc(O)c2C(=O)c2c(NCCNCCO)ccc(NCCNCCO)c21 [MITOXANTRONE] is less than 90%?
Reply: true

Ask: I'd appreciate it if you could check whether COC(=O)/C=C/CSc1nc2ccc3c(c2[nH]1)C(=O)c1ccccc1C3=O has Activity smaller than 90%.
Reply: true

Ask: Does this molecule meet the criterion Activity < 90%? O=C1c2ccccc2C(=O)c2c1ccc1nc(SCCN3CCCCC3)[nH]c21
Reply: false

Ask: # TODO verify Activity < 90% strictly for this molecule: O=C1c2ccccc2C(=O)c2c1ccc1nc(SCCCN3CCCCC3)[nH]c21
Reply: true

Ask: Please let me know if COc1cccc2c1C(=O)c1c(O)c3c(c(O)c1C2=O)C[C@@](O)(C(=O)CO)C[C@@H]3O[C@H]1C[C@H](N)[C@H](O)[C@H](C)O1 [DOXORUBICIN] shows Activity below 90%.
Reply: true

Ask: Given the entry CCN(CC)C(=O)CSc1nc2ccc3c(c2[nH]1)C(=O)c1ccccc1C3=O , would its reported Activity be below 90%?
Reply: false

###

- System: SN12C
- protocol: Cytotoxicity against human SN12C cells assessed as cell growth at 10 uM after 48 hrs by SRB assay
- Type: functional
- protocol-conditions: read-out: Activity
Would you kindly list growth at 10 µM for each of these molecules?
The reply should contain only the number, in %.

Ask: Recorded growth at 10 µM for O=C1c2ccccc2C(=O)c2c1ccc1[nH]c(=S)[nH]c21 , please?
Reply: 88

Ask: Item CCSc1nc2ccc3c(c2[nH]1)C(=O)c1ccccc1C3=O has what recorded growth at 10 µM?
Reply: 67.9

Ask: I'd like to know its growth at 10 µM. The molecule in question is O=C1c2ccccc2C(=O)c2c1ccc1nc(SCCN3CCCC3)[nH]c21
Reply: 52.9

Ask: Fill in: growth at 10 µM of CCCSc1nc2ccc3c(c2[nH]1)C(=O)c1ccccc1C3=O is ___
Reply: 80.4

Ask: // returns reported growth at 10 µM for input CN(C)CCCSc1nc2ccc3c(c2[nH]1)C(=O)c1ccccc1C3=O
Reply: 37.7

Ask: Tell me the measured growth at 10 µM of O=C1c2ccccc2C(=O)c2c1ccc1nc3n(c21)CCS3 , please.
Reply: 74.9

###

- Tested on: SNB-19
- protocol: Cytotoxicity against human SNB19 cells assessed as cell growth at 10 uM after 48 hrs by SRB assay
- Type: functional
- protocol-conditions: SNB-19, 48 h, read-out: Activity
Record form. Attribute: growth at 10 µM. Fill in for each entry.
Respond with the bare value in %.

Ask: Form field: reported growth at 10 µM of O=C1c2ccccc2C(=O)c2c1ccc1[nH]c(=S)[nH]c21
Reply: 91.3

Ask: # input compound: CCSc1nc2ccc3c(c2[nH]1)C(=O)c1ccccc1C3=O ; wanted: its growth at 10 µM
Reply: 87.9

Ask: I'd like to know its growth at 10 µM. The compound in question is O=C1c2ccccc2C(=O)c2c1ccc1nc3n(c21)CCS3
Reply: 74.5

Ask: // returns reported growth at 10 µM for input CN(C)CCCSc1nc2ccc3c(c2[nH]1)C(=O)c1ccccc1C3=O
Reply: 79.7

Ask: Could you tell me which growth at 10 µM is on file for O=C1c2ccccc2C(=O)c2c1ccc1nc(SCCN3CCCC3)[nH]c21 ?
Reply: 60.5

Ask: What measured growth at 10 µM goes with CCCSc1nc2ccc3c(c2[nH]1)C(=O)c1ccccc1C3=O ?
Reply: 92

###

- Tested on: TK-10
- protocol: Cytotoxicity against human TK10 cells assessed as growth inhibition after 48 hrs by SRB assay
- Assay type: functional
- protocol-conditions: TK-10, 48 h
I'd appreciate it if you could supply GI50 values for the items below.
Could you give me the number in µM? Just the number is fine.

Ask: Missing value: GI50, TK-10, entry O=C1c2ccccc2C(=O)c2c1ccc1nc(SCCN3CCCC3)[nH]c21 . Fill in?
Reply: 4.22

Ask: Record CCSc1nc2ccc3c(c2[nH]1)C(=O)c1ccccc1C3=O : what is its GI50 with TK-10?
Reply: 7.4

Ask: API: value(readout= GI50, system= TK-10, query= CCCSc1nc2ccc3c(c2[nH]1)C(=O)c1ccccc1C3=O )
Reply: 3.25

Ask: State its GI50 on TK-10: CN(C)CCCSc1nc2ccc3c(c2[nH]1)C(=O)c1ccccc1C3=O
Reply: 1.37

###

- Test system: 786-0
- protocol: Cytotoxicity against human 786-0 cells assessed as growth inhibition after 48 hrs by SRB assay
- Format: functional
- protocol-conditions: 786-0, 48 h
measured-quantity: GI50 (µM)
Write the answer as a number in µM, unit excluded.

Ask: Query: GI50; subject: CCSc1nc2ccc3c(c2[nH]1)C(=O)c1ccccc1C3=O
Reply: 46.7

Ask: For CCCSc1nc2ccc3c(c2[nH]1)C(=O)c1ccccc1C3=O , what is its reported GI50?
Reply: 2.13

Ask: Need GI50 of O=C1c2ccccc2C(=O)c2c1ccc1nc(SCCN3CCCC3)[nH]c21 , thanks.
Reply: 11.7

Ask: Which GI50 value is on record for CN(C)CCCSc1nc2ccc3c(c2[nH]1)C(=O)c1ccccc1C3=O ?
Reply: 9.73

###

- Tested on: NCI-H522
- protocol: Cytotoxicity against human NCI-H522 cells assessed as cell growth at 10 uM after 48 hrs by SRB assay
- Type: functional
- protocol-conditions: NCI-H522, 48 h, read-out: Activity
For each entry below, report its growth at 10 µM value.
The reply should be a number in %, with the unit left off.

Ask: Form field - read-out: growth at 10 µM; system: NCI-H522; submitted item: O=C1c2ccccc2C(=O)c2c1ccc1[nH]c(=S)[nH]c21
Reply: 96.1

Ask: API: value(readout= growth at 10 µM, system= NCI-H522, query= CCCSc1nc2ccc3c(c2[nH]1)C(=O)c1ccccc1C3=O )
Reply: 72.4

Ask: // map O=C1c2ccccc2C(=O)c2c1ccc1nc3n(c21)CCS3 to recorded growth at 10 µM (system: NCI-H522)
Reply: 80.6

Ask: Find growth at 10 µM (NCI-H522) for the entry O=C1c2ccccc2C(=O)c2c1ccc1nc(SCCN3CCCC3)[nH]c21
Reply: 81.5

Ask: Param readout = growth at 10 µM; param system = NCI-H522; param query = CN(C)CCCSc1nc2ccc3c(c2[nH]1)C(=O)c1ccccc1C3=O ; response: value
Reply: 69.3

Ask: Request: growth at 10 µM, test system NCI-H522, entry CCSc1nc2ccc3c(c2[nH]1)C(=O)c1ccccc1C3=O
Reply: 78.6

###

I'd appreciate it if you could supply CC50 values for the items below.
- Test system: HT-29
- protocol: Cytotoxicity against human HT-29 cells assessed as growth inhibition after 48 hrs by SRB assay
- Format: functional
- protocol-conditions: HT-29, 48 h, read-out: LC50 (the source's name)
Write down the numeric answer in µM and omit the unit.

Ask: Provide the documented CC50 with HT-29 as the system for O=C1c2ccccc2C(=O)c2c1ccc1nc(SCCN3CCCC3)[nH]c21
Reply: 15.2

Ask: Checklist item: CC50 tested on HT-29, entry CN(C)CCCSc1nc2ccc3c(c2[nH]1)C(=O)c1ccccc1C3=O , value?
Reply: 6.53

###

- Test system: IGROV-1
- protocol: Cytotoxicity against human IGROV1 cells assessed as growth inhibition after 48 hrs by SRB assay
- Format: functional
- protocol-conditions: IGROV-1, 48 h
measured-quantity: TGI

Ask: Returns the measured TGI for the input molecule. Input: CCSc1nc2ccc3c(c2[nH]1)C(=O)c1ccccc1C3=O
Reply: > 100 µM

Ask: GET /values?readout=TGI&item= O=C1c2ccccc2C(=O)c2c1ccc1nc(SCCN3CCCC3)[nH]c21
Reply: 3.39 µM

Ask: So what's the measured TGI for this one? CCCSc1nc2ccc3c(c2[nH]1)C(=O)c1ccccc1C3=O
Reply: > 100 µM

Ask: Could you tell me which TGI is on file for CN(C)CCCSc1nc2ccc3c(c2[nH]1)C(=O)c1ccccc1C3=O ?
Reply: 12.8 µM
